Target: Solute carrier family 22 member 12 (Homo sapiens)
Sequence (Q96S37 whole entry): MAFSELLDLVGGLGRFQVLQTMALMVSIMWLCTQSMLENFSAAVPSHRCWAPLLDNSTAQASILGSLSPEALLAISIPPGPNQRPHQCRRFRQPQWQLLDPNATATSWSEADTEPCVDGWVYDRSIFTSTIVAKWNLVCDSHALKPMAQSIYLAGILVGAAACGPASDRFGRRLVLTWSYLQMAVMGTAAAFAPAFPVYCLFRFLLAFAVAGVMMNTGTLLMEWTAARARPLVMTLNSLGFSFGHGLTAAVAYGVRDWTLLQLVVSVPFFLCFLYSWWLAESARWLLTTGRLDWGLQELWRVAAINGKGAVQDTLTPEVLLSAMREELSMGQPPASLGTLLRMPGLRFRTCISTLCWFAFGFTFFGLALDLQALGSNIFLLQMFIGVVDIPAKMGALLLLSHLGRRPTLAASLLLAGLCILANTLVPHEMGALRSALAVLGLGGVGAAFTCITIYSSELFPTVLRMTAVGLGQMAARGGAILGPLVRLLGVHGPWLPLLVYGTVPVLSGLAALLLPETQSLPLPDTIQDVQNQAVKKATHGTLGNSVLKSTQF
Test: Inhibition of human URAT1-mediated urate uptake in HEK293 cells
pIC50: −log10 of the molar value.
MEASURED_PARAMETER: pIC50

P: O=C1C(CC[S+]([O-])c2ccccc2)C(=O)N(c2ccccc2)N1c1ccccc1 (configuration not stated)
Q: O=c1c(O)c(-c2ccc(O)cc2O)oc2cc(O)cc(O)c12
# input Which of the two items, P and Q , has the greater recorded pIC50? Write down the label attached to your selection.
# output Q
(Q: 5.70, P: 4.00)
